B1: Receptor-interacting serine/threonine-protein kinase 2, residues 438 to 518; numbered along this chain, O43353 (parent)
chain: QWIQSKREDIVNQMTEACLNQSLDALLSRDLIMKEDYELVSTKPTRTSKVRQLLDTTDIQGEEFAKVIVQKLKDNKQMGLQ

Variants of: B1
assay overview: abundance fitness (aPCA) (normalised: wild type 0, dead -1); higher = more abundant; growth selection in yeast, the domain comes from the species named
run parameters: Homo sapiens
Record Y whenever abundance fitness is at -0.4 or higher; record N when lower.

Worked examples, 8 variants total:
[[record]]
residue_sequence = "QWIQSKREDIVNQMTEACLNQSLDALLSRDLIMKEDYELVSTKPTRTSKVRQLLDTTDIQGIEFAKVIVQKLKDNKQMGLQ"
class_label = "N"

[[record]]
residue_sequence = "QWIQSKREDIVNQMTEACLNQSLVALLSRDLIMKEDYELVSTKPTRTSKVRQLLDTTDIQGEEFAKVIVQKLKDNKQMGLQ"
class_label = "N"

[[record]]
residue_sequence = "QWIQSKREDIVNQMTEACLNQSLDALLSRDLIMKEDYELVSTKPTRTLKVRQLLDTTDIQGEEFAKVIVQKLKDNKQMGLQ"
class_label = "Y"

[[record]]
residue_sequence = "QWIQSKREDIVNQMTEACLNQSLDELLSRDLIMKEDYELVSTKPTRTSKVRQLLDTTDIQGEEFAKVIVQKLKDNKQMGLQ"
class_label = "Y"

[[record]]
residue_sequence = "QWIQSKREDIVNQMTEACLNQSLDALLSRDLIMKEDYELVSTKPTRTSKVRQLLDTTDIQGEEFAKVIQQKLKDNKQMGLQ"
class_label = "Y"

[[record]]
residue_sequence = "QWIQSKREDIVNQMTEACLNQSLDALLSRDLIMKEDYELVSTKPTRTSKVRQLLDTTDIQGEEFAKVIVQLLKDNKQMGLQ"
class_label = "Y"

[[record]]
residue_sequence = "QWIQSKREDIVNQMTEACLNQSLDALLSRDLPMKEDYELVSTKPTRTSKVRQLLDTTDIQGEEFAKVIVQKLKDNKQMGLQ"
class_label = "N"

[[record]]
residue_sequence = "QWIQSKREDIVNQMTEACLNQSLDALLSMDLIMKEDYELVSTKPTRTSKVRQLLDTTDIQGEEFAKVIVQKLKDNKQMGLQ"
class_label = "Y"


Dear colleague, could you confirm whether `QWIQSKREDIVNQMTEACLNQSQDALLSRDLIMKEDYELVSTKPTRTSKVRQLLDTTDIQGEEFAKVIVQKLKDNKQMGLQ` has abundance fitness at or above -0.4? N

Next: `QWIQSKREDIVNQMTEACLNQSLDALLSRDLIMKEDYELVSTKPTRTSKVRQLLDTTDIQGEEFAKVIVQKLKDMKQMGLQ` Y

Please give the result for `QWIQSKREDIVNQMTEACLNQSLDALLSRDLIMKEDYELVSNKPTRTSKVRQLLDTTDIQGEEFAKVIVQKLKDNKQMGLQ` too. Y

`QWIQSKREDIVNQMTEACLNQSLDALLSRDLIMKEDYELVSTKATRTSKVRQLLDTTDIQGEEFAKVIVQKLKDNKQMGLQ` ? Y

Moving on to the next variant: `QWIQSKREDIVNQMTEACLNQSLDALLSRDLIMKEDYELVSTKPTRTSKVRQLLDTTEIQGEEFAKVIVQKLKDNKQMGLQ` Y

Now try `QWIQSKREDIVNQMTEACLNQSLDALLSRDLIMKEDYELVSTKTTRTSKVRQLLDTTDIQGEEFAKVIVQKLKDNKQMGLQ` . Y

Queued: `QWIQSKREDIVNQMTEACLNQSLDALLSRDLIMKEDYELVSTKPTRTSKVCQLLDTTDIQGEEFAKVIVQKLKDNKQMGLQ` Y
